# Test protocol: Pharmacokinetic study in C57BL/6J mice (plasma and tissues)
# Type: in vivo
# Details: mouse, in vivo, ip, 50 mg/kg
Property name: Cmax (ng/mL)
Give your result in ng/mL as a bare value.

O=C(CCCCCCC(=O)Nc1ccccc1)NO [Vorinostat, vorinostat] :: 713

Consider the molecule O=C(O)CCC(=O)Nc1ccccc1 [RVL002, succinanilic acid] and give its measured Cmax.
12300

====

Entries annotated with measured AUC(0-inf)
# Test protocol: Pharmacokinetic study in C57BL/6J mice (plasma and tissues)
# Type: in vivo
# Details: mouse, in vivo, ip, 50 mg/kg
Expressed in ng·h/mL, but write only the number.

O=C(CCCCCCC(=O)Nc1ccccc1)NO :: 640

Please look at the following molecule next.
Returns the measured AUC(0-inf) for the input molecule. Input: O=C(O)CCC(=O)Nc1ccccc1
11600

Taken from patent US20260283990A1.
